target: ZAC (Homo sapiens, UniProt Q401N2); test: TEVC recordings, Zn2+-evoked currents at ZAC expressed in Xenopus oocytes; type: cell-based; details: 1 mM Zn2+ as agonist, tested at three concentrations (0.3-3-30 μM or 1-10-100 μM)
Sequence (Q401N2 26-412): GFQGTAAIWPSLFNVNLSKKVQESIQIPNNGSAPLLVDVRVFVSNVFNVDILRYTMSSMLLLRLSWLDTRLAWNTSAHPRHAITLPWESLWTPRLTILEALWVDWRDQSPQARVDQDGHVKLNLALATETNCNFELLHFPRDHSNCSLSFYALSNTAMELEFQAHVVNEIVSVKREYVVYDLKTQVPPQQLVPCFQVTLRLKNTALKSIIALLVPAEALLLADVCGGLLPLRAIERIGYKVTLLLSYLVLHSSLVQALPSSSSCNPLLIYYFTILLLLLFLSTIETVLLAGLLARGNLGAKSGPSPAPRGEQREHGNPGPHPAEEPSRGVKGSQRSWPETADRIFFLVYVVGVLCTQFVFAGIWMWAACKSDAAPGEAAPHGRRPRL
QUANTITY MEASURED: Antagonist activity at ZAC in SAR study (in words)

COMPOUND	REPORTED MEASUREMENT
COC(=O)c1sc(NC(=O)c2cc([N+](=O)[O-])ccc2Cl)nc1C [4f]	inactive
CCOC(=O)c1sc(NC(=O)c2cccc(Br)c2)nc1C [3b]	inactive
COC(=O)c1sc(NC(=O)c2ccncc2)nc1C [4h]	inactive

* * *

biological target: ZAC (Homo sapiens, UniProt Q401N2); assay: TEVC recordings, Zn2+-evoked currents at ZAC expressed in Xenopus oocytes; format: cell-based; details: Zn2+ (1 mM) as agonist, TEVC, steady-state current; read-out: IC50
QUANTITY MEASURED: IC50

GET /values?item= O=C(Nc1ncc([N+](=O)[O-])s1)c1cccc(Br)c1 [3f] &system= ZAC (Homo sapiens, UniProt Q401N2) returns IC50: ~20 µM

* * *

molecular target: ZAC (Homo sapiens, UniProt Q401N2); assay: TEVC recordings, Zn2+-evoked currents at ZAC expressed in Xenopus oocytes; type: cell-based; conditions: Zn2+ (1 mM) as agonist, TEVC
Answer each item with its documented Hill coefficient nH ± S.E.M..
Form: value (number only, do not type unit).

GET /values?item= `COC(=O)c1sc(NC(=O)c2cc(Br)ccc2Cl)nc1C` &system= ZAC (Homo sapiens, UniProt Q401N2) returns Hill coefficient nH ± S.E.M.: −1.3

GET /values?item= `CC(C)(C)c1csc(NC(=O)c2cccc(F)c2)n1` &system= ZAC (Homo sapiens, UniProt Q401N2) returns Hill coefficient nH ± S.E.M.: −1.5

GET /values?item= `CC(C)(C)c1csc(NC(=O)c2cc(Br)ccc2Cl)n1` &system= ZAC (Homo sapiens, UniProt Q401N2) returns Hill coefficient nH ± S.E.M.: −1.2

GET /values?item= `COC(=O)c1sc(NC(=O)c2cccc(I)c2)nc1C` &system= ZAC (Homo sapiens, UniProt Q401N2) returns Hill coefficient nH ± S.E.M.: −0.89
